These entries and their values trace back to BigSolDB 2.1.

- Setup conditions: in isopropanol, 298.15 K
Measured quantity: solubility (mole fraction)
// return a plain number; no unit text

For "O=C(O)c1cccnc1Cl" , what is its reported solubility (mole fraction)?
0.00972

###

- Setup conditions: in ethyl acetate, 283.15 K
Measured quantity: solubility (mole fraction)
// return a plain number; no unit text

For "O=C(O)c1cccnc1Cl" , what is its reported solubility (mole fraction)?
0.0189

###

- Setup conditions: in n-propanol, 303.15 K
Measured quantity: solubility (mole fraction)
// return a plain number; no unit text

For "O=C(O)c1cccnc1Cl" , what is its reported solubility (mole fraction)?
0.0125

###

- Setup conditions: in DMF, 303.15 K
Measured quantity: solubility (mole fraction)
// return a plain number; no unit text

For "O=C(O)c1cccnc1Cl" , what is its reported solubility (mole fraction)?
0.291
